EC50 at 24 h: recorded values
Assay: Cytotoxicity assay (MTS) in confluent non-differentiated Caco-2 cells
Assay type: cell-based, Human
Conditions: human, confluent, non-differentiated Caco-2 cells; isolated compounds; Caco-2, 24 hours, mean ± SD
Expressed in mM, but write only the number.

Reported EC50 at 24 h ( CC(C)Cc1ccc(C(C)C(=O)O)cc1 (centres unmarked) ) = 2.89

In the following, a different compound is considered.
Lab book: EC50 at 24 h of CC1CCC(C(C)C)C(O)C1 (centres unmarked) noted as 8.08

----------
System: Caco-2 cells
Test: Cytotoxicity assay (MTS) in confluent non-differentiated Caco-2 cells
Format: cell-based, Human
Conditions: isolated compounds; Caco-2, 24 hours, mean ± SD
Observable: EC50 (µM)
Express it in µM; write the number only.

For record CCCCCCCCCC(=O)O [CA, Capric acid] the listed EC50 is 1330

Reference for the values: paper PMC6797721
